Item-by-item account of MIC P. mirabilis 1
test system: P. mirabilis 1; assay: MIC, broth microdilution (NCCLS); assay type: cell-based; settings: Gram negative; resistant clinical isolate from diabetic foot ulcer; MHB 24 h 35° C.
Write the answer as a number in µg/mL, unit excluded.

Would you please look over these solved cases?
compound: CCOC(=O)c1cccnc1.O=[N+]([O-])[O-].[Ag+] [Compound 2, [Ag(ethylnicotinate)2]NO3]
result value: 128
--
compound: CCOC(=O)c1ccncc1.O=[N+]([O-])[O-].[Ag+] [Compound 3, [Ag(ethylisonicotinato)2]NO3]
result value: 8
--
compound: Nc1ncccc1C(=O)O.Nc1ncccc1C(=O)O.O=[N+]([O-])[O-].O=[N+]([O-])[O-].[Ag+].[Ag+] [Compound 6, [Ag2-μ-O,O′(2-aminonicotinium)2](NO3)2]
result value: 64

With those in mind, consider the next compound.
query: For COC(=O)c1ccncc1.O=[N+]([O-])[O-].[Ag+] [Compound 4, [Ag(methylisonicotinate)2]NO3] , what is its reported MIC P. mirabilis 1?
result: 2
